target: EGFR wildtype (WT) (Homo sapiens, UniProt P00533); assay: Biochemical EGFR kinase inhibition assay (Lance Ultra TR-FRET), wildtype; conditions: ATP at Km; read-out: IC50 WT (nM), Km ATP
Sequence (P00533 25-1210): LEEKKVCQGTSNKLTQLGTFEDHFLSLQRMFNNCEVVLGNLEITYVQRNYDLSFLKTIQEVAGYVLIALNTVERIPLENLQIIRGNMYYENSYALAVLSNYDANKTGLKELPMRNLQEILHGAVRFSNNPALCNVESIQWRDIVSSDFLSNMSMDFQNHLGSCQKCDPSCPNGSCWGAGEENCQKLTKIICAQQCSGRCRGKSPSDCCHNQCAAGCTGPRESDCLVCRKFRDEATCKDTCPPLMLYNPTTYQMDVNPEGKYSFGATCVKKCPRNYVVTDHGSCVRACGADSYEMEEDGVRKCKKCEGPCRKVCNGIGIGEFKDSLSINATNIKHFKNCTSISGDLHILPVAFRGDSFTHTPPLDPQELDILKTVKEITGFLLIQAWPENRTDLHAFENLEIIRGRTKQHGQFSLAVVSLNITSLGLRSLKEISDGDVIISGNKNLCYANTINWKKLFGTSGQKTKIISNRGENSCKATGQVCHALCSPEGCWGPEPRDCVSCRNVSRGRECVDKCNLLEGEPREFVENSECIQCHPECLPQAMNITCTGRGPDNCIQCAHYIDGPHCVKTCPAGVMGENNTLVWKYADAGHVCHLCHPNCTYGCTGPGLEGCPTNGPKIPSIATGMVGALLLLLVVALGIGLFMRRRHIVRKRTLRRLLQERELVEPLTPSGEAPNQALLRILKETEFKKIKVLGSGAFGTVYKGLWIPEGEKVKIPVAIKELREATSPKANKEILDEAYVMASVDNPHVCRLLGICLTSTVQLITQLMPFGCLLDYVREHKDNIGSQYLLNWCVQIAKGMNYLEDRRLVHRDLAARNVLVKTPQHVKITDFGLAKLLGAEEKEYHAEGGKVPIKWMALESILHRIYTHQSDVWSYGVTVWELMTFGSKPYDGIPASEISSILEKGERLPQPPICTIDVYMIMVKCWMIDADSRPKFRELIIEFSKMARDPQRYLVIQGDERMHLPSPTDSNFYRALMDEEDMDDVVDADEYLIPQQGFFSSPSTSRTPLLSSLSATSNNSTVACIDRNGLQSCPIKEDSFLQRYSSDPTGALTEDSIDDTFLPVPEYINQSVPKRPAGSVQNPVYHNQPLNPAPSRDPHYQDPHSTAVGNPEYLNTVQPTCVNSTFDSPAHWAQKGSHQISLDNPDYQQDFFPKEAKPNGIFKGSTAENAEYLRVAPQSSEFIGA
experimental-readout: IC50 (nM)

1) Cn1cc(C#Cc2cnc(Nc3ccnc(-c4cnn(S(=O)(=O)C5CC5)c4)n3)cc2N2CC3(CCNCC3)C2)cn1 90.6

I. CN1CCN(Cc2ccc(C#Cc3cnc(Nc4ccnc(-c5cnn(S(=O)(=O)C6CC6)c5)n4)cc3N3CCC(C)(CO)CC3)cc2)CC1
II. O=S(=O)(C1CC1)n1cc(-c2nccc(Nc3cc(N[C@H]4CC[C@@H](O)CC4)c(C#Cc4ccc(CN5CCOCC5)cc4)cn3)n2)cn1
III. CC(C)Nc1cc(Nc2ccnc(-c3cnn(S(=O)(=O)C4CC4)c3)n2)ncc1C#Cc1csc(CF)n1
Exercise: Sort the 3 molecules by IC50; largest first, smallest last. Form field (ranking): labels in requested order.
Key: III, II, I

P. CN(C)Cc1ccc(C#Cc2cnc(Nc3ccnc(-c4cnn(S(=O)(=O)C5CC5)c4)n3)cc2N2CCC(C)(CO)CC2)cn1
Q. CC1(O)CCN(c2cc(Nc3ccnc(-c4cnn(S(=O)(=O)C5CC5)c4)n3)ncc2C#Cc2cccnc2)CC1
R. CN1CCC(C#Cc2cnc(Nc3ccnc(-c4cnn(S(=O)(=O)C5CC5)c4)n3)cc2N2CCC(C)(CO)CC2)CC1
Exercise: Rank items: key IC50, increasing. Form field (ranking): labels in requested order.
Key: P, R, Q

I. CC1(CO)CCN(c2cc(Nc3ccnc(-c4cnn(S(=O)(=O)C5CC5)c4)n3)ncc2C#Cc2ccc(CN3CCOCC3)cn2)CC1
II. CC1(CO)CCN(c2cc(Nc3ccnc(-c4cnn(S(=O)(=O)C5CC5)c4)n3)ncc2C#Cc2nc(C(F)(F)F)cs2)CC1
Exercise: I'm curious whether I or II has the smaller IC50 number. Which is it? Bench note: the answer is the label of the chosen record.
Key: I

* * *

molecular target: EGFR L858R/T790M/C797S (Homo sapiens, UniProt P00533, C797S/L858R/T790M); assay: Biochemical EGFR kinase inhibition assay (Lance Ultra TR-FRET), triple mutant L858R/T790M/C797S; settings: IC50 L858R/T790M/C797S (nM), 100 μM ATP
Sequence (P00533 25-1210 T790M/C797S/L858R): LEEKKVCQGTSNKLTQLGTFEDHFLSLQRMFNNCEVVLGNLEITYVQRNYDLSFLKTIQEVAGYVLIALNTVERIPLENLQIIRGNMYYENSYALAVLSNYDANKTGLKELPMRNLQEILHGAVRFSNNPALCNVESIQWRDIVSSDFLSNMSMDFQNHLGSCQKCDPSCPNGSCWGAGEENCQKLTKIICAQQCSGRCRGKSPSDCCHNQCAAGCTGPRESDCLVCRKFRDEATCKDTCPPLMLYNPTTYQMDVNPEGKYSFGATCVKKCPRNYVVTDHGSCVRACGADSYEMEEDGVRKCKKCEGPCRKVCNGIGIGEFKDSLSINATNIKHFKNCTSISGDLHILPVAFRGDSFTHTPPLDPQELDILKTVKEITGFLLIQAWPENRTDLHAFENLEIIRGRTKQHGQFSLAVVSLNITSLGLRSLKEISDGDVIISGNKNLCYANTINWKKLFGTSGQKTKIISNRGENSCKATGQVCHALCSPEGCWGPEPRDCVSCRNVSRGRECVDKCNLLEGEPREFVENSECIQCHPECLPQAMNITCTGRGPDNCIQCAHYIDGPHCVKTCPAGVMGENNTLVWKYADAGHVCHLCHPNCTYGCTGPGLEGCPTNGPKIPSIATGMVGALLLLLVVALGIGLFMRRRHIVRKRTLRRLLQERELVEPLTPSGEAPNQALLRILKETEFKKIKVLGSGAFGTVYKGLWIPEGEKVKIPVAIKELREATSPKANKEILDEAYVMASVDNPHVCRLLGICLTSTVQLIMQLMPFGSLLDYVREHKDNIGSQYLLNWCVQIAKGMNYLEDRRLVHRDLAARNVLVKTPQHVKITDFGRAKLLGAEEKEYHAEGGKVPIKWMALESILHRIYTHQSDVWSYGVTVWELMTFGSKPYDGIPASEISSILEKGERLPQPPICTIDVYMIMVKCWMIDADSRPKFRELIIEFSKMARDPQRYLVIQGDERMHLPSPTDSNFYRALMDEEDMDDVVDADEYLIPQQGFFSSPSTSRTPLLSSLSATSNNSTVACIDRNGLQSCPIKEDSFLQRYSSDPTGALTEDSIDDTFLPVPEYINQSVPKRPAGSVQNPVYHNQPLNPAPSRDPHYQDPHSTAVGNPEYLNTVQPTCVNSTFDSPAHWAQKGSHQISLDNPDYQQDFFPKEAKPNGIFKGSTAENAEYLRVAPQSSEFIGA
experimental-readout: IC50 (nM)

molecule	IC50 (nM)
O=S(=O)(C1CC1)n1cc(-c2nccc(Nc3cc(N4CC[C@@H](O)C4)c(C#Cc4cnn(CCF)c4)cn3)n2)cn1 [Example 32]	4.8

I. Cn1cc(C#Cc2cnc(Nc3ccnc(-c4cnn(S(=O)(=O)C5CC5)c4)n3)cc2N2CCC(F)(CNCCF)CC2)cn1 [Example 383]
II. Cn1ncc(C#Cc2cnc(Nc3ccnc(-c4cnn(S(=O)(=O)C5CC5)c4)n3)cc2N2CCC(CCO)CC2)c1C1CC1 [Example 87]
III. CC1(O)CCN(c2cc(Nc3ccnc(-c4cnn(S(=O)(=O)C5CC5)c4)n3)ncc2C#CC2(C)CC2)CC1 [Example 404]
Exercise: Rank items: key IC50, increasing. Form field (ranking): labels in requested order.
Key: I, III, II

* * *

molecular target: EGFR wildtype (WT) (Homo sapiens, UniProt P00533); assay: Biochemical EGFR kinase inhibition assay (Lance Ultra TR-FRET), wildtype; conditions: IC50 WT (nM), 100 μM ATP
Form field: IC50 (one value per entry).

Use these answered entries as a reference point.
compound	result
CN(CCO)c1cc(Nc2ccnc(-c3cnn(S(=O)(=O)C4CC4)c3)n2)ncc1C#Cc1cnn(CCF)c1	> 10000 nM
CN1CCC(C#Cc2cnc(Nc3ccnc(-c4cnn(S(=O)(=O)C5CC5)c4)n3)cc2N2CCC(C)(CO)CC2)C1 (stereo not shown)	1100 nM
CN(C)C[C@H]1CC[C@@H](Nc2cc(Nc3ccnc(-c4cnn(S(=O)(=O)C5CC5)c4)n3)ncc2C#Cc2cnn(C)c2)CC1	6180 nM
O=S(=O)(C1CC1)n1cc(-c2nccc(Nc3cc(N4CCN(CCO)CC4)c(C#Cc4cnn(CCF)c4)cn3)n2)cn1	> 10000 nM
CC(C)Nc1cc(Nc2ccnc(-c3cnn(S(=O)(=O)C4CC4)c3)n2)ncc1C#CCCCC(=O)N1CCOCC1	> 10000 nM

Exercise: Look up IC50 for this compound: Cn1cnc(C#Cc2cnc(Nc3ccnc(-c4cnn(S(=O)(=O)C5CC5)c4)n3)cc2N[C@@H]2CC[C@H](O)C2)c1
Key: > 10000 nM

Exercise: Look up IC50 for this compound: O=S(=O)(C1CC1)n1cc(-c2nccc(Nc3cc(N[C@H]4CCC[C@H](O)C4)c(C#Cc4ccsc4)cn3)n2)cn1
Key: > 10000 nM
